target: recombinant human melanocortin-4 receptor (hMCR-4) in membrane homogenates of HEK-293 cells (human) (UniProt P32245); experiment: competitive inhibition of [I125]-NDP-alpha-MSH, hMCR-4 HEK-293 membranes
Sequence (P32245 whole entry): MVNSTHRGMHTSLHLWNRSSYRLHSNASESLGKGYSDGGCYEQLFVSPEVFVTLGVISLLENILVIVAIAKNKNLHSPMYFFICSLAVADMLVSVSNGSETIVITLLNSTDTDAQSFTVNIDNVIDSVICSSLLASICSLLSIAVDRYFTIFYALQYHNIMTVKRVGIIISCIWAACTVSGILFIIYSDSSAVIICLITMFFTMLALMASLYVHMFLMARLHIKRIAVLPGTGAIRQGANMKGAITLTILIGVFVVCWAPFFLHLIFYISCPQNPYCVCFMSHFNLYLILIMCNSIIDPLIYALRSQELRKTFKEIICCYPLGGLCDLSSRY
[ ]: non-standard residue; d: D form. Nle = CCCC[C@H](N)C(=O)O; Dab = NCC[C@H](N)C(=O)O; Sar = CNCC(=O)O
REPORTED ENDPOINT: Ki (µM)

• Ac-[Nle]AH[dF]R[dP]W-NH2 (SMILES CCCC[C@H](NC(C)=O)C(=O)N[C@@H](C)C(=O)N[C@@H](Cc1c[nH]cn1)C(=O)N[C@H](Cc1ccccc1)C(=O)N[C@@H](CCCNC(=N)N)C(=O)N1CCC[C@@H]1C(=O)N[C@@H](Cc1c[nH]c2ccccc12)C(N)=O) [Ac-Nle-Ala-His-D-Phe-Arg-D-Pro-Trp-NH2] = 6.2
• Ac-[Nle]A[Dab][dF]RAW-NH2 (SMILES CCCC[C@H](NC(C)=O)C(=O)N[C@@H](C)C(=O)N[C@@H](CCN)C(=O)N[C@H](Cc1ccccc1)C(=O)N[C@@H](CCCNC(=N)N)C(=O)N[C@@H](C)C(=O)N[C@@H](Cc1c[nH]c2ccccc12)C(N)=O) [Ac-Nle-Ala-Dab-D-Phe-Arg-Ala-Trp-NH2] = 7.85
• Ac-[Nle]AH[dF]R[Sar]W-NH2 (SMILES CCCC[C@H](NC(C)=O)C(=O)N[C@@H](C)C(=O)N[C@@H](Cc1c[nH]cn1)C(=O)N[C@H](Cc1ccccc1)C(=O)N[C@@H](CCCNC(=N)N)C(=O)N(C)CC(=O)N[C@@H](Cc1c[nH]c2ccccc12)C(N)=O) [Ac-Nle-Ala-His-D-Phe-Arg-Sar-Trp-NH2] = 0.87
